B1: library; a variant is named by its letters at X, in order (parent)
chain: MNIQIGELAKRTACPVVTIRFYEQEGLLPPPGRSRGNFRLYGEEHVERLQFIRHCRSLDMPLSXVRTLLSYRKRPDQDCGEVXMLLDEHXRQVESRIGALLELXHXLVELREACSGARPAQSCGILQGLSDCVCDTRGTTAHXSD

- Variants of: B1
- Measurement Protocol: sfGFP reporter fluorescence (15 h) (µM FITC); higher = higher leak
- Measurement Setup: library round: Round 3b; ligand: none
Measurement Kind: sfGFP reporter fluorescence
Form field (numeric): enter value without unit.

Please look up its sfGFP reporter fluorescence: MNIQIGELAKRTACPVVTIRFYEQEGLLPPPGRSRGNFRLYGEEHVERLQFIRHCRSLDMPLSKVRTLLSYRKRPDQDCGEVFMLLDEHARQVESRIGALLELTHALVELREACSGARPAQSCGILQGLSDCVCDTRGTTAHTSD [KFATAT] 0.0465

Query (variant): MNIQIGELAKRTACPVVTIRFYEQEGLLPPPGRSRGNFRLYGEEHVERLQFIRHCRSLDMPLSDVRTLLSYRKRPDQDCGEVFMLLDEHARQVESRIGALLELTHELVELREACSGARPAQSCGILQGLSDCVCDTRGTTAHRSD [DFATER] ; field requested: sfGFP reporter fluorescence 0.044

I am curious: what sfGFP reporter fluorescence value has been reported for MNIQIGELAKRTACPVVTIRFYEQEGLLPPPGRSRGNFRLYGEEHVERLQFIRHCRSLDMPLSDVRTLLSYRKRPDQDCGEVNMLLDEHARQVESRIGALLELVHELVELREACSGARPAQSCGILQGLSDCVCDTRGTTAHRSD [DNAVER] ? 0.0468

Give the measured sfGFP reporter fluorescence of MNIQIGELAKRTACPVVTIRFYEQEGLLPPPGRSRGNFRLYGEEHVERLQFIRHCRSLDMPLSDVRTLLSYRKRPDQDCGEVFMLLDEHARQVESRIGALLELTHHLVELREACSGARPAQSCGILQGLSDCVCDTRGTTAHRSD [DFATHR] . 0.0436

Name the reported sfGFP reporter fluorescence value associated with the variant MNIQIGELAKRTACPVVTIRFYEQEGLLPPPGRSRGNFRLYGEEHVERLQFIRHCRSLDMPLSKVRTLLSYRKRPDQDCGEVFMLLDEHIRQVESRIGALLELTHALVELREACSGARPAQSCGILQGLSDCVCDTRGTTAHRSD [KFITAR] 0.0479

Value lookup for sfGFP reporter fluorescence; key = MNIQIGELAKRTACPVVTIRFYEQEGLLPPPGRSRGNFRLYGEEHVERLQFIRHCRSLDMPLSKVRTLLSYRKRPDQDCGEVFMLLDEHARQVESRIGALLELVHELVELREACSGARPAQSCGILQGLSDCVCDTRGTTAHTSD [KFAVET] 0.0489

Entry under review: MNIQIGELAKRTACPVVTIRFYEQEGLLPPPGRSRGNFRLYGEEHVERLQFIRHCRSLDMPLSKVRTLLSYRKRPDQDCGEVNMLLDEHARQVESRIGALLELKHELVELREACSGARPAQSCGILQGLSDCVCDTRGTTAHTSD [KNAKET] . Reported sfGFP reporter fluorescence? 0.0595

Entry MNIQIGELAKRTACPVVTIRFYEQEGLLPPPGRSRGNFRLYGEEHVERLQFIRHCRSLDMPLSDVRTLLSYRKRPDQDCGEVIMLLDEHARQVESRIGALLELVHALVELREACSGARPAQSCGILQGLSDCVCDTRGTTAHTSD [DIAVAT] : reported sfGFP reporter fluorescence = ? 0.0441

What value of measured sfGFP reporter fluorescence is listed for MNIQIGELAKRTACPVVTIRFYEQEGLLPPPGRSRGNFRLYGEEHVERLQFIRHCRSLDMPLSDVRTLLSYRKRPDQDCGEVIMLLDEHARQVESRIGALLELVHHLVELREACSGARPAQSCGILQGLSDCVCDTRGTTAHRSD [DIAVHR] ? 0.0454

Need sfGFP reporter fluorescence, item MNIQIGELAKRTACPVVTIRFYEQEGLLPPPGRSRGNFRLYGEEHVERLQFIRHCRSLDMPLSKVRTLLSYRKRPDQDCGEVNMLLDEHARQVESRIGALLELVHALVELREACSGARPAQSCGILQGLSDCVCDTRGTTAHRSD [KNAVAR] 0.0498

Requested field: sfGFP reporter fluorescence. Item: MNIQIGELAKRTACPVVTIRFYEQEGLLPPPGRSRGNFRLYGEEHVERLQFIRHCRSLDMPLSDVRTLLSYRKRPDQDCGEVFMLLDEHARQVESRIGALLELVHALVELREACSGARPAQSCGILQGLSDCVCDTRGTTAHTSD [DFAVAT] 0.0442

Origin of values: the supplement of paper PMC12783771
